# Target or test system: Neuronal acetylcholine receptor; alpha3/beta4 (Rattus norvegicus, UniProt P04757+P12392)
# Sequence (P04757 whole entry): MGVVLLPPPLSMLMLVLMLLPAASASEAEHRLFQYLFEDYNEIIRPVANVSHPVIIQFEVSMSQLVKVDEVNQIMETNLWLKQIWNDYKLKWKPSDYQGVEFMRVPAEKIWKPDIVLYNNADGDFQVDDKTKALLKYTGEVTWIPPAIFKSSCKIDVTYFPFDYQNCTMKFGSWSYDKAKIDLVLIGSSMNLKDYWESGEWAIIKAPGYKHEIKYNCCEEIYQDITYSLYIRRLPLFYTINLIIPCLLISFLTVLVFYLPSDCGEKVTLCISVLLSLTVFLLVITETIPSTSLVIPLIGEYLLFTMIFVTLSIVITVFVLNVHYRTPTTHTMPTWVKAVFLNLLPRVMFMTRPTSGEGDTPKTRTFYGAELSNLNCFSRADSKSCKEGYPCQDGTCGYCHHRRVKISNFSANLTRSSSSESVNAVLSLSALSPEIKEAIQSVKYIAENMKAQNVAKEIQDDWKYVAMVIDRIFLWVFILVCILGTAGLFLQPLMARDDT
# Sequence (P12392 whole entry): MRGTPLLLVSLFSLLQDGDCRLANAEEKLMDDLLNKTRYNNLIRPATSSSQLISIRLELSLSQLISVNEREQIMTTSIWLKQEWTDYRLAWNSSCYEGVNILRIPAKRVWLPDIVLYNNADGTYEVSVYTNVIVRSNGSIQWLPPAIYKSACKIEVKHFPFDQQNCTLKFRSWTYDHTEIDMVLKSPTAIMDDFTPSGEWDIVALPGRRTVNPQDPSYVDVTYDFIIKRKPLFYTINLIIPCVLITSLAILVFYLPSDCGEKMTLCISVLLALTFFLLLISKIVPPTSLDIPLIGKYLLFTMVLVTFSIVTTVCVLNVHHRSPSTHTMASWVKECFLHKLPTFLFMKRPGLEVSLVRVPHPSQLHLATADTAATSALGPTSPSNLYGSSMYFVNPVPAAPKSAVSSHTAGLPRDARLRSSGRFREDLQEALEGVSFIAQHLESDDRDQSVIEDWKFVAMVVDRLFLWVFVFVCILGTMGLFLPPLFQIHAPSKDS
# Method notes: Binding affinity at rat brain Nicotinic acetylcholine receptor alpha3-beta4
pKi: −log10 of the molar value.
Classify by measured pKi: Met if it is equal to or exceeds 6, Not met if it is smaller.

>>> class_name("C1=C(c2cnccn2)C2CC[C@H](CC1)N2")
"Not met"
>>> class_name("C1=C(c2ccccn2)C2CC[C@H](CC1)N2")
"Not met"
>>> class_name("C1=C(c2ccncc2)C2CC[C@H](CC1)N2")
"Not met"
>>> class_name("C1=C(c2cncnc2)C2CC[C@H](CC1)N2")
"Met"
>>> class_name("C1=C(c2cccnn2)C2CC[C@H](CC1)N2")
"Met"

* * *

# Target or test system: Neuronal acetylcholine receptor subunit alpha-7 (Rattus norvegicus)
# Method notes: Compound was tested for its potency at Nicotinic acetylcholine receptor alpha-7 relative to that of Nicotinic acetylcholine receptor alpha4-beta2
Listed below: Affinity ratio values for each entry.
Observed property: Affinity ratio

>>> meas_value("C1=C(c2cncnc2)C2CC[C@H](CC1)N2")
696
>>> meas_value("C1=C(c2cccnn2)C2CC[C@H](CC1)N2")
118
>>> meas_value("C1=C(c2cnccn2)C2CC[C@H](CC1)N2")
100
>>> meas_value("C1=C(c2ccccn2)C2CC[C@H](CC1)N2")
31

* * *

# pKi per entry
# Target or test system: Neuronal acetylcholine receptor; alpha4/beta2 (Rattus norvegicus, UniProt P09483+P12390)
# Sequence (P09483 whole entry): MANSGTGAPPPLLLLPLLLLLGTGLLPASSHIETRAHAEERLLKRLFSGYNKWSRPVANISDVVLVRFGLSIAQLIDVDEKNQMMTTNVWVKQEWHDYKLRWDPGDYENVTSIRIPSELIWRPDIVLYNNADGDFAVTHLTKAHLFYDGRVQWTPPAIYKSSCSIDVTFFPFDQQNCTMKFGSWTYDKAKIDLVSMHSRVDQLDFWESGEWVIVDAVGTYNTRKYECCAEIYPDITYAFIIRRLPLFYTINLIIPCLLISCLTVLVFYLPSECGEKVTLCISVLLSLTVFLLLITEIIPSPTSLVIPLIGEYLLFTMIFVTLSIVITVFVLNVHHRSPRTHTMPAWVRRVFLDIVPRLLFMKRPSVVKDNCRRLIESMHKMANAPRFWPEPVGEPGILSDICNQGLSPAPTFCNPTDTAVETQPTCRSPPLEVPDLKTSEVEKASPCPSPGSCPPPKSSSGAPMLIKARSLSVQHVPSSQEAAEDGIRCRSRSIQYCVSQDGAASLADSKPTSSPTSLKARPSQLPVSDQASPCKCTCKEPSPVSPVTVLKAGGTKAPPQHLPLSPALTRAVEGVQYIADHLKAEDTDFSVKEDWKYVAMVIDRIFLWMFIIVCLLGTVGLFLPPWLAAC
# Sequence (P12390 whole entry): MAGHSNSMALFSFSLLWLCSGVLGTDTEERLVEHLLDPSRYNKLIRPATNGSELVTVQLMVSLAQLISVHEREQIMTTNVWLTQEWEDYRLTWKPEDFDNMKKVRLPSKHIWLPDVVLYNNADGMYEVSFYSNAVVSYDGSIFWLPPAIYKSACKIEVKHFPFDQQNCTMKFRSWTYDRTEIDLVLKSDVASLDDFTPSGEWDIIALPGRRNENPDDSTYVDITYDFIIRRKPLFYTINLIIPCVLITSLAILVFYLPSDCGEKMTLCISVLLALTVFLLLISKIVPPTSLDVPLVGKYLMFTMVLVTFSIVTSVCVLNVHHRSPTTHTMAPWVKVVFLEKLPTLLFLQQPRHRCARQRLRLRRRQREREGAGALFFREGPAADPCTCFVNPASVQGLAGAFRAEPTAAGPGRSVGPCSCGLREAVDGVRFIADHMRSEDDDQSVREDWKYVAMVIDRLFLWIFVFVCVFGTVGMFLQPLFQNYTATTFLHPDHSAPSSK
# Method notes: Binding affinity at rat brain Nicotinic acetylcholine receptor alpha4-beta2
pKi: −log10 of the molar value.
Observed property: pKi

>>> meas_value("C1=C(c2ccncc2)C2CC[C@H](CC1)N2")
4.96
>>> meas_value("C1=C(c2cnccn2)C2CC[C@H](CC1)N2")
7.24
>>> meas_value("C1=C(c2cccnn2)C2CC[C@H](CC1)N2")
8.59
>>> meas_value("C1=C(c2cncnc2)C2CC[C@H](CC1)N2")
8.61
>>> meas_value("C1=C(c2cccnc2)C2CC[C@H](CC1)N2")
9.37

* * *

# Method notes: Compound was tested for its potency at Nicotinic acetylcholine receptor alpha3-beta4 relative to that of Nicotinic acetylcholine receptor alpha4-beta2
Observed property: Affinity ratio

>>> meas_value("C1=C(c2ccncc2)C2CC[C@H](CC1)N2")
2
>>> meas_value("C1=C(c2cccnn2)C2CC[C@H](CC1)N2")
20
>>> meas_value("C1=C(c2ccccn2)C2CC[C@H](CC1)N2")
6.8
>>> meas_value("C1=C(c2cnccn2)C2CC[C@H](CC1)N2")
49
>>> meas_value("C1=C(c2cncnc2)C2CC[C@H](CC1)N2")
96

* * *

# Target or test system: Neuronal acetylcholine receptor; alpha3/beta4 (Rattus norvegicus, UniProt P04757+P12392)
# Method notes: Activation potency at Nicotinic acetylcholine receptor alpha3beta4, expressed as concentration required to achieve a half maximal activation
pEC50: −log10 of the molar value.
pEC50 listing for selected molecules.
Observed property: pEC50

>>> meas_value("C1=C(c2cncnc2)C2CC[C@H](CC1)N2")
5.41
>>> meas_value("C1=C(c2cccnn2)C2CC[C@H](CC1)N2")
5.38

* * *

# Target or test system: Neuronal acetylcholine receptor; alpha3/beta4 (Rattus norvegicus, UniProt P04757+P12392)
# Method notes: Activation potency at Nicotinic acetylcholine receptor alpha3beta4, expressed as concentration required to achieve a half maximal activation
# Type: protein-complex assay
pEC50: −log10 of the molar value.
// pEC50 lookup, one value per entry
Observed property: pEC50

>>> meas_value("C1=C(c2cnccn2)C2CC[C@H](CC1)N2")
"< 4.00"
>>> meas_value("C1=C(c2ccncc2)C2CC[C@H](CC1)N2")
"< 4.00"
>>> meas_value("C1=C(c2ccccn2)C2CC[C@H](CC1)N2")
"< 4.00"
